- System under test: type IC cascade from Neisseria lactamica (NlaCascade/crRNA complex) (Neisseria lactamica)
- Protocol description: SPR; BIAcore T200, NlaCascade/crRNA complex captured on a Ni-NTA chip (711-826 RU), AcrIC9 injected in twofold dilutions from 125 nM (8 to 125 nM), HBS-P buffer (0.01 M HEPES pH 7.4, 0.15 M NaCl, 0.005% P20), 25°C, 1:1 binding model
pKd: −log10 of the molar value.
Measurement name: pKd

# Binder, Result number
rows = [
    ("AcrIC9 from Rhodobacter capsulatus (natural protein) METKMTSFYKITAYNSQALYFWGTDADVDRYVDWLNRDREINVYAAEAIPEAEWAQYEGRDDVLSGEECGWDDFMSAEA", 8.36),
]
